B1: POU domain, class 4, transcription factor 1, residues 266 to 347; numbered along this chain, Q01851 (parent)
chain: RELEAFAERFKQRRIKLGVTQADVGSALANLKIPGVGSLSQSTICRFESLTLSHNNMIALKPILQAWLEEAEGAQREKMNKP

# Variants of: B1
# PROTOCOL TEXT: abundance fitness (aPCA) (normalised: wild type 0, dead -1); higher = more abundant; growth selection in yeast, the domain comes from the species named
# EXPERIMENTAL CONDITIONS: Homo sapiens
Property: abundance fitness; scope: individual variants
Note: the reply should be a number with no unit written.

- MUTANT DESIGNATION: "G18D"
  VALUE: -0.394
- MUTANT DESIGNATION: "R13Q"
  VALUE: -0.053
- MUTANT DESIGNATION: "Q12G"
  VALUE: -0.205
- MUTANT DESIGNATION: "K32E"
  VALUE: 0.016
- MUTANT DESIGNATION: "M57K"
  VALUE: -0.901

Query string: Recorded abundance fitness for I33R , please?
Result string: -0.217
